protocol.description: In vitro metabolic stability in rat liver microsomes
Format: in vitro ADME
condition.notes: male, rat, rat liver microsomes, pH 7.4, rat; extrapolated from CLint, in vitro by allometric scaling; read-out: CLint, in vivo
recorded.metric: CLint scaled at 2 µM (mL/min/kg)
Numbers only, in mL/min/kg.

[Q] What measured CLint scaled at 2 µM goes with O=C1NC(c2c[nH]c3ccc(O)cc23)=C/C1=C1\C(=O)Nc2ccccc21 ?
[A] 93.7

###

protocol.description: In vitro metabolic stability in rat liver microsomes
Format: in vitro ADME
condition.notes: male, rat, rat liver microsomes, pH 7.4, RLMs
recorded.metric: microsomal CLint at 2 µM (µL/min/mg)
Give bare numbers, in µL/min/mg.

[Q] What measured microsomal CLint at 2 µM goes with O=C1NC(c2c[nH]c3ccc(O)cc23)=C/C1=C1\C(=O)Nc2ccccc21 [violacein] ?
[A] 38.4

###

protocol.description: in vitro
Type: in vitro ADME
condition.notes: human, microsomes, pH 7.4
recorded.metric: microsomal CLint at 2 µM (µL/min/mg)
Give bare numbers, in µL/min/mg.

[Q] What measured microsomal CLint at 2 µM goes with O=C1NC(c2c[nH]c3ccc(O)cc23)=C/C1=C1\C(=O)Nc2ccccc21 ?
[A] 6.4
